assayed_target: AChE (obtained from electric eel; EeAChE) (Electrophorus electricus)
Construct: AChE (obtained from electric eel)
Sequence (O42275 24-633): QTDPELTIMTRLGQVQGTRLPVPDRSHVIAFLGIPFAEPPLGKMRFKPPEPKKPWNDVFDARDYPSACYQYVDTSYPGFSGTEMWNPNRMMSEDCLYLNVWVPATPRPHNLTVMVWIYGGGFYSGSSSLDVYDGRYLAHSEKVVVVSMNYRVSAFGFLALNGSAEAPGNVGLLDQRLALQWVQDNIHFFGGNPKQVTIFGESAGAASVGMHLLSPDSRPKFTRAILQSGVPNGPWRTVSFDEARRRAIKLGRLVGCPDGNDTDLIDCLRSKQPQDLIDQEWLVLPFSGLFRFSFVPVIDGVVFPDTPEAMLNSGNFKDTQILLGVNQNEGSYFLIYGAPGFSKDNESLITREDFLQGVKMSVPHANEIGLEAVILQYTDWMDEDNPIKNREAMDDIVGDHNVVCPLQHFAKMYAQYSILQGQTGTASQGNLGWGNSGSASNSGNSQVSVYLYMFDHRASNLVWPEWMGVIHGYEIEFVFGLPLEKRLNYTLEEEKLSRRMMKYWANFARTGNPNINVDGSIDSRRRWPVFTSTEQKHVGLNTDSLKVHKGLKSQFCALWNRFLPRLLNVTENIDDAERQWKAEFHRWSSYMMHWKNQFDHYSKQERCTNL
assay_name: biochemical
condition_summary: electric eel AChE; mean ± SD from three independent experiments
endpoint_label: IC50 (µM)
Answers are plain numbers, in µM.

Known IC50 results, listed for orientation:
CCCCCCCCCCCCCNC(=O)NNC(=O)c1ccc(S(N)(=O)=O)cc1 74.6
CCCCCCCCCCCCCNC(=O)NNC(=O)c1ccc(F)cc1 60.2
CCCCCCCCCCCCCNC(=O)NNC(=O)c1ccccc1C(F)(F)F 80.4
CNC(=O)NNC(=O)c1ccc(Cl)cc1 44.1
CCCCCCCCCCCCCNC(=O)NNC(=O)c1ccc(OC(F)(F)F)cc1 65.1

Please give IC50 for each item listed below.
1. CNC(=O)NNC(=O)c1ccc(O)cc1
2. CCCCCCCCCCCCCNC(=O)NNC(=O)c1ccc(Cl)cc1

Result ::
1. 67.6
2. 86.6

Please give IC50 for each item listed below.
1. CNC(=O)NNC(=O)c1ccc(S(N)(=O)=O)cc1
2. CCCCCCCCCCCCCNC(=O)NNC(=O)c1ccccc1Br
3. CCCCCCCCCCCCCNC(=O)NNC(=O)c1cccc([N+](=O)[O-])c1
4. CNC(=O)NNC(=O)c1ccc(Oc2ccccc2)cc1

Result ::
1: 86.1; 2: 54; 3: 62.5; 4: 75
